Each entry below carries its reported kon.
- Target desc: T1, human IL-23 (human, UniProt Q9NPF7 20-189; P29460 23-328)
- T1 construct: also called hIL-23; human recombinant IL-23
- T1 sequence (looked up) 1: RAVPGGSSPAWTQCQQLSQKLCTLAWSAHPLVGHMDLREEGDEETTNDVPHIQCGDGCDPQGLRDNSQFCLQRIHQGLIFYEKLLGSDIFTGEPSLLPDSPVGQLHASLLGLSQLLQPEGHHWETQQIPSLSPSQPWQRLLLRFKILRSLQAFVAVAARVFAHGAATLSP
- T1 sequence (looked up) 2: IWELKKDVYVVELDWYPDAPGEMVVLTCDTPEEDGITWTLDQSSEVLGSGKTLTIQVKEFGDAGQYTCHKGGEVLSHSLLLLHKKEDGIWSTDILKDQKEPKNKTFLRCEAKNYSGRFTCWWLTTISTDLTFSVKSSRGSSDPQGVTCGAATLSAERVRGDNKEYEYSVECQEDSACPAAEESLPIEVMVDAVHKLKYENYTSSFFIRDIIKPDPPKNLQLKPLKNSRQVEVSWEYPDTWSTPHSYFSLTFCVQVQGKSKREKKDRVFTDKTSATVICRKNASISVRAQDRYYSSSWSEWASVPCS
- Measurement notes: SPR, Adnectin captured by anti-His mAb, IL-23 injected
Response body: numeric value in M⁻¹ s⁻¹, unit text excluded.

Binder: 1550 E03 (designed binder, captured by anti-His mAb) MGVSDVPRDLEVVAATPTSLLISWGHYPLHIRYYRITYGETGGNSPVQEFTVPRMRHTATISGLKPGVDYTITVYAVTYYSEELYKYIPISINYRTEIDKPSQHHHHHH
kon [M⁻¹ s⁻¹]: 99500

Next, consider the following binder.
Ask: Return reported kon. Input binder: 1487D09 (designed binder, captured by anti-His mAb) MGVSDVPRDLEVVAATPTSLLISWGHYPMHIRYYRITYGETGGNSPVQEFTVPRSRHTATISGLKPGVDYTITVYAVTYYNEADYSQIPISINYRTEIDKPSQHHHHHH
Reply: 150000
